B1: SPATS1 (parent)
chain: GRKKYDIDPRNGIPKLTPGDNPYM

- Variants of: B1
- TEST_METHOD_NOTES: protein stability index of a GFP-peptide fusion (GPS, HEK-293T) (PSI 1-6); higher = more stable;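 also: lentivirally expressed fusions sorted by FACS into six bins by GFP to DsRed ratio, PSI derived from sequencing read proportions per bin multiplied by bin number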
- CONDITION_LABEL: c terminus: a fixed tail appended
Some variants, each annotated with its measured protein stability index.
METRIC_NAME: protein stability index

VARIANT_KEY	RESULT_NUMBER
D20A	3.58
K3I	3.39
I13V	3.82
R10S	3.65
M24D	4.4
K4R	3.19
K15N	3.49
G19C	3.21
P18H	3.42
K3D	4.24
L16E	4.32
G12E	3.97
K15V	3.29
D6W	2.38
L16P	3.67
N11G	3.53
K15Q	4.05
G12C	2.48
P18R	3.24
D8C	3.1
D8K	3.14
P9K	3.27
